# Test system: LKB1;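 also: KINOMEscan kinase panel screen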
# Construct: gene STK11
# Condition Description: concentration: 1 μM, replicates: in singlicate; n = 1
# %Inh listing for each entry below
Measured Parameter: %Inh (%)

c1ccc(-c2ccnc3[nH]ccc23)cc1 | 0
CS(=O)(=O)CCNCc1nc(-c2ccc3ncnc(Nc4ccc5c(cnn5Cc5ccccc5)c4)c3c2)cs1.Cl.Cl | 0
Cc1ccc(-c2nc(Nc3ccncc3)c3ccccc3n2)s1 | 0
Cc1c(Cn2c(C)c(C)n3c(=O)cc(N4CCOCC4)nc23)cccc1C(F)(F)F | 18
COc1ccc(CSc2nnc(-c3ccc4ncsc4c3)o2)cc1C(F)(F)F | 2
Cc1nccc(-c2c(-c3ccc(F)cc3)ncn2CCCN2CCOCC2)n1.Cl | 0
Cc1cccc2c(-c3ccncn3)c(-c3ccc(F)cc3)nn12 | 0
Nc1cccc(-c2ccc3c(N)n[nH]c3c2)n1 | 7
COc1nccc(-c2c(-c3ccc(F)cc3)ncn2CCCN2CCOCC2)n1 | 0
O=C(Nc1n[nH]c2cc(-c3ccsc3)ccc12)C1CC1 | 0
CC(C)c1ccc(O)cc1Nc1ccnc2ccc(C(F)(F)F)cc12 | 0
COc1cccc(C2=C(Nc3cc(Cl)c(O)c(Cl)c3)C(=O)NC2=O)c1 | 0
COc1cc2ncnc(Nc3cccc(Br)c3)c2cc1OC.Cl | 10
COc1ccc(-c2coc3ccc(-c4nnc(C)o4)cc23)cc1 | 5
CCc1ccc(-c2ccc3c(c2)-c2n[nH]cc2S(=O)(=O)N3C)cc1 | 17
CSc1ccc(-c2nc3n(c2-c2ccncc2)CCC3)cc1 | 0
NS(=O)(=O)c1cccc(N/C=C2\C(=O)Nc3ccc(S(=O)(=O)Cc4c(Cl)cccc4Cl)cc32)c1 | 0
COC(=O)c1cccc(NC(=O)NC2CCN(c3ccnc(Nc4ccc(OC)cc4)n3)C2)c1 (stereo not shown) | 0
CS(=O)(=O)CCNCc1nc(-c2ccc3ncnc(Nc4ccc(OCc5ccccc5)c(Cl)c4)c3c2)cs1.Cl | 0
COc1cccc(NC(=O)Nc2ccc(C)c(-c3ccc(C(=O)Nc4ccncc4)cc3)c2)c1 | 0
CNCc1ccc2nc(NC(=O)c3ccc(C(C)(C)C)cc3)cn2c1 | 31
O=C(Nc1n[nH]c2nc(-c3cccs3)c(Br)cc12)C1CC1 | 0
O=C1NC(=O)C(c2ccc(Cl)cc2)=C1Nc1ccc(O)cc1 | 13
CNc1nc(-c2ccc3c(N)n[nH]c3c2)cc(N2C[C@@H](C(=O)Nc3ccccc3)CC[C@H]2C)n1 | 7
Cc1ccc(NC(=O)Nc2ccc(Cl)c(C(F)(F)F)c2)cc1-c1ccc(C(=O)Nc2ccncc2)cc1 | 6
Cn1cnc2c(N)ncnc21 | 36
CC(=O)c1c(C)c2cnc(Nc3ccc(N4CCNCC4)cn3)nc2n(C2CCCC2)c1=O | 0
Nc1nccc(-c2c(-c3ccc(F)cc3)ncn2C2CCN(Cc3ccccc3)CC2)n1 | 36
COc1ccc2cc(-c3nc(-c4ccccc4C(C)C)[nH]c3-c3ccncc3)ccc2c1 | 0
Cc1ccc(NC(=O)Nc2ccc(Cl)cc2)cc1-c1ccc(C(=O)Nc2ccncc2)cc1 | 0
COc1ccc(CSc2nnc(-c3ccc4c(c3)CCO4)o2)cc1 | 6
CC(=O)c1c(C)c2cnc(Nc3ccn(C)n3)nc2n(C2CCCC2)c1=O | 0
Fc1ccc(-c2nn3cccc(F)c3c2-c2ccncc2)cc1 | 0
Cc1ccc(NC(=O)Nc2ccccc2F)cc1-c1ccc(C(=O)Nc2ccncc2)cc1 | 0
CNc1cc(-c2ccc3c(N)n[nH]c3c2)nc(N)n1 | 0
COc1ccc(Nc2nccc(N3CCC(NC(=O)C(C)c4ccc(Cl)cc4)C3)n2)cc1 (stereo not shown) | 0
CN1c2ccc(-c3ccc(C(N)=O)cc3)cc2-c2[nH]ncc2S1(=O)=O | 10
